Here the recorded pKd is given for each entry.
Biological target: T1, Shh-N in conditioned medium (human, UniProt Q15465 24-197, N-terminal palmitoyl modification; lacks the C-terminal cholesterol moiety)
T1 construct: domain: N-terminal signaling domain; also called Shh-CM; Shh conditioned media (CM)
Assay: ELISA, apparent KD, purified antibody on immobilized Shh-CM
In plain terms, pKd is the concentration in mol/L turned into minus its base-10 logarithm.

Look over these answered cases.
- 3H8OP (antibody, V domains shown) VH: QVQLVESGGGVVQPGRSLRLSCAASGFTFSTYGMHWVRQAPGKGLEWVAVIWYDGSNKYYADSVKGRFTISRDNSKNTLYLQMNSLRAEDTAVYYCARDLYYYGSGSPFDYWGQGTLVTVSS VL: EIVMTQSPATLSVSPGERATLSCRASQSVSSNLAWYQQKPGQAPRLLIYGVSIRATGIPARFSGSGSGTEFTLTISSLQSEDFAVYYCQQYNNWPRPGFGGGTKVEIK: 9.16
- 6D7 (antibody, V domains shown, fully human XenoMouse hybridoma antibody; also called MAb 6D7) VH: QVQLQESGPGLVKPSQTLSLTCTVSGGSINSGGFYWSWIRQHPGKNLEWIGSIYYSGNTYYNPSLKSRVTISVDTSKNQFSLKLTSVTAADTAVYYCARGNDSGDYDWYFDLWGRGTLVTVSS VL: SYELTQPPSVSVSPGQTASITCSGEKLGYKYVCWYQQKPGQSPVLVIFHDNKRPSGIPERFSGSNSGNTATLTISGAQAMDEADYYCQAGDSSAVFGGGTKLTVL: 10.22
- 3H8 (antibody, V domains shown, fully human XenoMouse hybridoma antibody; also called MAb 3H8) VH: QVQLVESGGGVVQPGRSLRLSCAASGFTFSTYGMHWVRQAPGKGLEWVAVIWYDGSNKYYADSVKGRFTISRDNSKNTLNLQMNSLRAEDTAVYYCARDLYYYGSGSPFDYWGQGTLVTVSS VL: EIVMTQSPATLSVSPGERATLSCRASQSVSSNLAWYQQKPGQAPRLLIFGVSIRATGIPARFSGSGSGTEFTLTISSLQSEDFAVYYCQQYNNWPRPGFGGGTKVEIK: 9.48

Please turn your attention to the following entry.
Q: Could you tell me which pKd is on file for 1G1 (antibody, V domains shown, fully human XenoMouse hybridoma antibody; also called MAb 1G1) VH: EVQLVESGGGLVKPGGSLRLSCAASGFTFSSYSMNWVRQAPGKGLEWVSSFSSSSSYIYYADSVKGRFTISRDNAKNSLYLQMNSLRAEDTAVYYCARDRGDYVDYYYGMDVWGQGTTVTVSS VL: SYELTQPPSVSVSPGQTASITCSGDKLDYKYICWYQQKPGQSPVLVIYQDIKRPSGIPERFSGSNSGNTATLTISGTQAMDEADYYCQAWDSNTPLVFGGGTKLTVL ?
A: 10.52
